Just for reference, paper doi:10.1101/2021.10.05.463282 is where these values come from.

Target: recombinant trimeric spike protein derived from SARS-CoV-2 (Sino Biological) (SARS-CoV-2, ancestral (Wuhan-Hu-1) …, UniProt P0DTC2)
Assay: ELISA
quantity_kind: binding result

B8-mIgA2 (antibody, V domains shown) VH: EVQLVQSGAEVKKPGSSVKVSCKASGGTFSNYGISWVRQAPGQGLEWMGRILPTFGTANSAQKFQGRVTITADESTGTAYMELRSLRSEDTAVYYCAKEGLAFLGYGMDVWGQGTTVTVSS VL: EIVLTQSPGTLSLSPGERATLSCRASQSVSSYLAWYQQKPGQAPRLLIYDASNRATGIPARFIGSGSGTDFTLTISSLEPEDFAVYFCQQRSNWPLTFGGGTKVEIK    binds
